Every entry's value here was drawn from PubChem BioAssay (NCATS).

method: qHTS of pediatric cancer cell lines to identify multiple opportunities for drug repurposing: Confirmatory screen for Rh41 cells (AID 1347123);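 also: 48 h compound exposure; plate controls were DMSO for no effect and bortezomib for full effect; nearly all actives have a fitted effect of over 60% in size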
condition.label: Rh41 rhabdomyosarcoma cells, viability/cytotoxicity qHTS; series mostly up to 45.9 µM
Records with an inconclusive call do not appear. Active and inactive are the calls of the source. Calls follow the shape of the dose curve; as a rule, active = well fitted cell-killing curve with a large enough effect; inconclusive = small, poorly fitted or top-dose-only effect; inactive = no such curve, though single readings can be large or run the other way.
measure.name: activity change, negative = cytotoxic

[
  {
    "molecule": "O=C(O)CN1C(=O)c2cccc3cccc(c23)C1=O",
    "endpoint.value": "inactive"
  },
  {
    "molecule": "C[C@](N)(Cc1ccc(O)cc1)C(=O)O",
    "endpoint.value": "0% [at 5.01 µM] (inactive)"
  },
  {
    "molecule": "O=c1cc[nH]c(=S)[nH]1",
    "endpoint.value": "inactive"
  },
  {
    "molecule": "CCN(CC)CCNC(=O)c1cc(Cl)c(N)cc1OC",
    "endpoint.value": "inactive"
  },
  {
    "molecule": "C[C@@H]1C[C@H]2[C@@H]3C[C@H](F)C4=CC(=O)C=C[C@]4(C)[C@@]3(F)[C@@H](O)C[C@]2(C)[C@@]1(O)C(=O)CO",
    "endpoint.value": "inactive"
  }
]

====

Test system: OV90
method: Primary qHTS to identify gynecologic anti-cancer compounds using libraries of approved drugs and bioactive compounds (AID 1345084); also: nearly all actives have a fitted effect of over 55% in size
condition.label: Gynecologic cancer cell panel viability, ATPlite luminescence, 48 h; series mostly up to 57.5 µM
Inconclusive results are not listed. Active and inactive are the calls of the source. The call rests on the fitted dose curve; in most records, active means well fitted cell-killing curve with a large enough effect; inconclusive means small, poorly fitted or top-dose-only effect, or effect the other way; inactive means flat fitted curve, though single readings scatter.
Labels: TRUE for active, FALSE for inactive

[
  {
    "molecule": "CCN(CC)CCOC(=O)C1(C2CCCCC2)CCCCC1",
    "assigned.category": "FALSE"
  },
  {
    "molecule": "O=C1NC(=O)[C@@]2(CCOc3ccc(F)cc32)N1",
    "assigned.category": "FALSE"
  },
  {
    "molecule": "C[C@@H](O)[C@H](N)C(=O)O",
    "assigned.category": "FALSE"
  },
  {
    "molecule": "O=S(=O)(O)c1cc(I)c(O)c2ncccc12",
    "assigned.category": "FALSE"
  },
  {
    "molecule": "CC1(C)[C@@H]2CC[C@@]1(C)C(=O)C2",
    "assigned.category": "FALSE"
  },
  {
    "molecule": "C#CCN(C)Cc1ccccc1",
    "assigned.category": "FALSE"
  },
  {
    "molecule": "CCCCN(CCCC)CCCOC(=O)c1ccc(N)cc1",
    "assigned.category": "FALSE"
  },
  {
    "molecule": "CCCc1c(OCCCCc2nn[nH]n2)ccc(C(C)=O)c1O",
    "assigned.category": "FALSE"
  },
  {
    "molecule": "COc1ccc2cc1Oc1cc3c(cc1OC)CC[N+](C)(C)[C@H]3Cc1ccc(cc1)Oc1c(OC)c(OC)cc3c1[C@@H](C2)[N+](C)(C)CC3",
    "assigned.category": "FALSE"
  },
  {
    "molecule": "CC1(C)CO[C@@H](CC(=O)O)CN1",
    "assigned.category": "FALSE"
  },
  {
    "molecule": "CN1[C@@H]2CC(OC(=O)[C@H](CO)c3ccccc3)C[C@H]1[C@@H]1O[C@@H]12 (stereo partly specified)",
    "assigned.category": "FALSE"
  },
  {
    "molecule": "c1ccc(CN(CC2=NCCN2)c2ccccc2)cc1",
    "assigned.category": "FALSE"
  },
  {
    "molecule": "CCOc1ccc2ccccc2c1C(=O)N[C@@H]1C(=O)N2[C@@H]1SC(C)(C)[C@@H]2C(=O)O",
    "assigned.category": "FALSE"
  },
  {
    "molecule": "CCCCCCCCCCCCOS(=O)(=O)O",
    "assigned.category": "FALSE"
  },
  {
    "molecule": "CC(C)(C)C(=O)NCCCC(=O)O",
    "assigned.category": "FALSE"
  },
  {
    "molecule": "CC[N+](CC)(CC)CCOc1ccc(/C=C/c2ccccc2)cc1",
    "assigned.category": "TRUE"
  },
  {
    "molecule": "O=C(O)c1ccccn1",
    "assigned.category": "FALSE"
  },
  {
    "molecule": "O=S(=O)(O)NC1CCCCC1",
    "assigned.category": "FALSE"
  },
  {
    "molecule": "O=C(O)[C@@H]1CSCN1",
    "assigned.category": "FALSE"
  },
  {
    "molecule": "CCCOC(=O)c1ccccc1",
    "assigned.category": "FALSE"
  },
  {
    "molecule": "COc1cc2[nH]c(=O)[nH]c(=O)c2cc1OC",
    "assigned.category": "FALSE"
  },
  {
    "molecule": "CCN(CC)CCNC(=O)c1cc(Cl)c(N)cc1OC",
    "assigned.category": "FALSE"
  },
  {
    "molecule": "NC(=O)N/N=C/c1ccc([N+](=O)[O-])o1",
    "assigned.category": "FALSE"
  },
  {
    "molecule": "O=C(O)[C@H](O)c1ccccc1",
    "assigned.category": "FALSE"
  },
  {
    "molecule": "CS(=O)(=O)c1ccc([C@@H](O)[C@@H](CF)NC(=O)C(Cl)Cl)cc1",
    "assigned.category": "FALSE"
  },
  {
    "molecule": "CCN(CC)C(=O)Nc1ccc(OCC(O)CNC(C)(C)C)c(C(C)=O)c1 (stereo unspecified)",
    "assigned.category": "FALSE"
  }
]

====

method: qHTS to identify inhibitors of the type 1 interferon - major histocompatibility complex class I in skeletal muscle: primary screen against the NCATS Pharmaceutical Collection (AID 1347407);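 also: luminescence of HiBiT knocked into endogenous HLA-B as interferon-induced MHC class I level; % is scaled to controls: 0 for no effect and ±100 for the full control effect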
condition.label: human skeletal muscle cells, IFN-b-induced MHC-I HiBiT luminescence, 24 h; series mostly up to 45.9 µM
Results filed as inconclusive are left out. Calls of active or inactive are those of the source. Calls come from the whole dose curve; as a rule, active = well fitted inhibition curve with a large enough effect; inconclusive = small, poorly fitted or top-dose-only effect; inactive = flat fitted curve, though single readings scatter.
measure.name: activity change, negative = inhibition

[
  {
    "compound": "CS(=O)(=O)c1ccc([C@@H](O)[C@@H](CF)NC(=O)C(Cl)Cl)cc1",
    "measure.name": "activity change, negative = inhibition",
    "endpoint.value": "inactive"
  },
  {
    "compound": "COc1cc(C)c(Cc2cnc(N)nc2N)cc1OC",
    "measure.name": "activity change, negative = inhibition",
    "endpoint.value": "inactive"
  },
  {
    "compound": "CC(=O)Nc1ccc(/C=N/NC(N)=S)cc1",
    "measure.name": "activity change, negative = inhibition",
    "endpoint.value": "inactive"
  },
  {
    "compound": "C[C@H]1O[C@H](O[C@H]2[C@H](O)[C@@H](O)[C@@H](O[C@H]3[C@H](O)[C@@H](O)[C@H](O)O[C@@H]3CO)O[C@@H]2CO)[C@H](O)[C@@H](O)[C@@H]1N[C@H]1C=C(CO)[C@@H](O)[C@H](O)[C@H]1O",
    "measure.name": "activity change, negative = inhibition",
    "endpoint.value": "inactive"
  },
  {
    "compound": "N[C@@H](CSSC[C@H](N)C(=O)O)C(=O)O",
    "measure.name": "activity change, negative = inhibition",
    "endpoint.value": "0.957% [at 0.727 µM] (inactive)"
  },
  {
    "compound": "NC(=O)c1ncn([C@@H]2O[C@H](CO)[C@@H](O)[C@H]2O)n1",
    "measure.name": "activity change, negative = inhibition",
    "endpoint.value": "inactive"
  },
  {
    "compound": "COc1cc(C(=O)N2CCOCC2)cc(OC)c1OC",
    "measure.name": "activity change, negative = inhibition",
    "endpoint.value": "inactive"
  },
  {
    "compound": "Nc1nc2c(ncn2CCC(CO)CO)c(=O)[nH]1",
    "measure.name": "activity change, negative = inhibition",
    "endpoint.value": "inactive"
  },
  {
    "compound": "CC(O)CN(CCN(CC(C)O)CC(C)O)CC(C)O (stereo not given)",
    "measure.name": "activity change, negative = inhibition",
    "endpoint.value": "inactive"
  },
  {
    "compound": "CCN(CC)C(C)CN1c2ccccc2Sc2ccccc21 (stereo not given)",
    "measure.name": "activity change, negative = inhibition",
    "endpoint.value": "inactive"
  }
]

====

Tested on: CP265
method: qHTS profiling for inhibitors of Plasmodium falciparum proliferation (AID 504749); also: nearly all actives have a fitted effect of over 60% in size
condition.label: P. falciparum in erythrocytes, SYBR Green DNA, 72 h; series mostly up to 28.7 µM
Results filed as inconclusive are left out. Active and inactive are the calls of the source. The call rests on the fitted dose curve; in most records, active means well fitted inhibition curve with a large enough effect; inconclusive means small, poorly fitted or top-dose-only effect; inactive means flat fitted curve, though single readings scatter.
Labels: 1 (active), -1 (inactive)

[
  {
    "molecule": "O=C1O[C@H]([C@@H](O)CO)C(O)=C1O",
    "assigned.category": -1
  },
  {
    "molecule": "OCc1cc(C(O)CNCCCCCCOCCCCc2ccccc2)ccc1O (stereo not given)",
    "assigned.category": -1
  },
  {
    "molecule": "CCN(CC)CCNC(=O)c1cc(Cl)c(N)cc1OC",
    "assigned.category": -1
  },
  {
    "molecule": "Cc1cc2c(cc1S(N)(=O)=O)S(=O)(=O)CCC2",
    "assigned.category": -1
  },
  {
    "molecule": "CSc1ccc2c(c1)C(N1CCN(C)CC1)Cc1ccccc1S2 (stereo not given)",
    "assigned.category": -1
  },
  {
    "molecule": "O=C(Oc1ccccc1C(=O)O)c1ccccc1O",
    "assigned.category": -1
  },
  {
    "molecule": "CC(=O)c1ccc2c(c1)N(CCCN(C)C)c1ccccc1S2",
    "assigned.category": -1
  },
  {
    "molecule": "CNC(=O)Oc1ccc2c(c1)[C@]1(C)CCN(C)[C@@H]1N2C",
    "assigned.category": 1
  },
  {
    "molecule": "Oc1cn2c(n1)Nc1ccc(Cl)c(Cl)c1C2",
    "assigned.category": -1
  },
  {
    "molecule": "Cc1cc(CC(=O)O)n(C)c1C(=O)c1ccc(Cl)cc1",
    "assigned.category": -1
  },
  {
    "molecule": "Cc1cc(O)cc2c1O[C@](C)(CCC[C@H](C)CCC[C@H](C)CCCC(C)C)CC2",
    "assigned.category": -1
  },
  {
    "molecule": "CC(C)(C)NCC(O)COc1ccc(NC(=O)NC2CCCCC2)cc1 (stereo not given)",
    "assigned.category": -1
  },
  {
    "molecule": "CCOC(=O)c1ccc(O)cc1",
    "assigned.category": -1
  },
  {
    "molecule": "CCN(CC)CCNC(C(=O)OCCC(C)C)c1ccccc1 (stereo not given)",
    "assigned.category": 1
  },
  {
    "molecule": "CC(C)(C)C(=O)NCCCC(=O)O",
    "assigned.category": -1
  },
  {
    "molecule": "CCCCN(CCCC)CC(O)c1cc(Cl)cc2c1-c1ccc(Cl)cc1/C2=C/c1ccc(Cl)cc1 (stereo not given)",
    "assigned.category": 1
  },
  {
    "molecule": "CC(=O)Nc1ccc(/C=N/NC(N)=S)cc1",
    "assigned.category": -1
  },
  {
    "molecule": "Oc1cccc(O)c1",
    "assigned.category": -1
  },
  {
    "molecule": "COc1cc(C(=O)N2CCOCC2)cc(OC)c1OC",
    "assigned.category": -1
  },
  {
    "molecule": "COc1cc(C)c(Cc2cnc(N)nc2N)cc1OC",
    "assigned.category": -1
  },
  {
    "molecule": "CCOc1ccc2ccccc2c1C(=O)N[C@@H]1C(=O)N2[C@@H]1SC(C)(C)[C@@H]2C(=O)O",
    "assigned.category": -1
  },
  {
    "molecule": "CCOc1nc2cccc(C(=O)O)c2n1Cc1ccc(-c2ccccc2-c2nn[nH]n2)cc1",
    "assigned.category": -1
  },
  {
    "molecule": "Cc1cc(N)c2ccccc2[n+]1CCCCCCCCCC[n+]1c(C)cc(N)c2ccccc21",
    "assigned.category": 1
  },
  {
    "molecule": "O=c1cc[nH]c(=O)[nH]1",
    "assigned.category": -1
  },
  {
    "molecule": "O=C(O)CN1C(=O)c2cccc3cccc(c23)C1=O",
    "assigned.category": -1
  }
]
